PROTOCOL TEXT: AUC in mouse brain at 40 mg/kg, po administered as single dose
Format: ADME, organism-based
Set-up: dose 40 mg/kg, route oral
PROPERTY MEASURED: AUC (µM·h)
# output: bare number, implied unit µM·h

Would you kindly share the measured AUC for c1ccc2cc(Nc3nc(-c4ccncc4)cs3)ncc2c1 ?
59.1

Also need Cc1ccnc(Nc2nc(-c3ccncc3)cs2)c1 , thanks.
34.6

Also need c1ccc2cc(Nc3nc(-c4cc5ccccc5o4)cs3)ncc2c1 , thanks.
10.9
